Provenance of the data: the supplement of paper PMC10567573

B1: CSNK1G1 (parent)
chain: GSLPWQGLKADTLKERYQKIGDTK

variants of: B1; experiment: protein stability index of a GFP-peptide fusion (GPS, HEK-293T) (PSI 1-6); higher = more stable; settings: c terminus: a fixed tail appended;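 note: lentivirally expressed fusions sorted by FACS into six bins by GFP to DsRed ratio, PSI derived from sequencing read proportions per bin multiplied by bin number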
Assign condition met whenever protein stability index does not fall below 4; assign condition not met whenever it does.

>>> print(df.to_string())
                      sequence_code     category_label
 0   GSLPWQGFKADTLKERYQKIGDTK [L8F]  condition not met
 1   CSLPWQGLKADTLKERYQKIGDTK [G1C]  condition not met
 2  GSLPWQGLKADTLKERYQKIGDTE [K24E]      condition met
 3  GSLPWQGLKADTLPERYQKIGDTK [K14P]      condition met
 4   GSLPWQGHKADTLKERYQKIGDTK [L8H]      condition met
 5  GSLPWQGLKADTLKENYQKIGDTK [R16N]      condition met
 6  GSLPWQGLKADTLKERYQKIADTK [G21A]  condition not met
 7  GSLPWQGLKADTVKERYQKIGDTK [L13V]  condition not met
 8  GSLPWQGLKADTLKERTQKIGDTK [Y17T]      condition met
 9   GSLPWQGLNADTLKERYQKIGDTK [K9N]      condition met
10  GSLPWQGLKADILKERYQKIGDTK [T12I]  condition not met
11   GSLPWQGQKADTLKERYQKIGDTK [L8Q]      condition met
12  GSLPWQGLKADTDKERYQKIGDTK [L13D]      condition met
13   GRLPWQGLKADTLKERYQKIGDTK [S2R]  condition not met
14  GSLPWQGLKADTLWERYQKIGDTK [K14W]  condition not met
15   GSLPWQGDKADTLKERYQKIGDTK [L8D]      condition met
16  GSLPWQGLKADTLKEWYQKIGDTK [R16W]  condition not met
17   WSLPWQGLKADTLKERYQKIGDTK [G1W]  condition not met
18   PSLPWQGLKADTLKERYQKIGDTK [G1P]      condition met
19   KSLPWQGLKADTLKERYQKIGDTK [G1K]      condition met
20  GSLPWQGLKADTLKERYQKLGDTK [I20L]  condition not met
21  GSLPWQGLKADTLKERYQKIGDLK [T23L]  condition not met
22  GSLPWQGLKADTLKERYQMIGDTK [K19M]  condition not met
23  GSLPWQGLKADTIKERYQKIGDTK [L13I]      condition met
24  GSLPWQGLKATTLKERYQKIGDTK [D11T]  condition not met
25  GSLPWQGLKADTLKERYQCIGDTK [K19C]  condition not met
26  GSLPWQGLKADTLKERYQKIVDTK [G21V]  condition not met
27   GSLPWEGLKADTLKERYQKIGDTK [Q6E]      condition met
